B1: Intersectin-1, residues 1156 to 1213; numbered along this chain, Q15811 (parent)
chain: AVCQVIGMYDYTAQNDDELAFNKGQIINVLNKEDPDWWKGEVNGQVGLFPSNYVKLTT

- Variants of: B1
- test.protocol: abundance fitness (aPCA) (normalised: wild type 0, dead -1); higher = more abundant; growth selection in yeast, the domain comes from the species named
- test.settings: Homo sapiens
// label = 1.0 if abundance fitness is not less than -0.2, otherwise 0.0

residue.change	answer.label
G24S	0.0
V2W	0.0
T57M	1.0
I27N	0.0
T57L	1.0
V54C	0.0
N43S	0.0
Q14T	0.0
W37H	0.0
F49A	0.0
F21I	0.0
E33T	1.0
K23A	1.0
V46K	0.0
N52F	0.0
Q45Y	0.0
N22L	0.0
N52D	1.0
Y9V	1.0
N31H	1.0
Q14V	0.0
L30P	0.0
N52Q	1.0
I26W	0.0
N52L	0.0
W38I	0.0
V46A	0.0
E41S	0.0
L30H	0.0
T57V	1.0
Q45N	1.0
E41D	0.0
G44R	0.0
M8S	0.0
M8F	0.0
V54I	0.0
F49V	0.0
I6A	0.0
Y53Q	0.0
A1E	1.0
I26K	1.0
K32G	0.0
L19Y	0.0
